test system: TO-N3-2 (biotin conjugate); experiment: pull-down binding Z-score (relative to library population); higher = stronger binding; conditions: RNA library: Library-2
Below, each entry is listed with its recorded pull-down binding Z-score.

Worked cases, pull-down binding Z-score given:
Ask | Query pull-down binding Z-score for UGGCCAUGGUACAUUUGGCUA
Reply | -0.59

Ask | Query pull-down binding Z-score for UGCUAUUAGAAAGUAAUGGCA [hsa-mir-548ba]
Reply | -0.00903

Ask | Query pull-down binding Z-score for UCGAGAGGUCAGAGGAUUGCUCCUGA [hsa-mir-5585]
Reply | 1.67

Next:
Ask | Query pull-down binding Z-score for GGGUCCUAAGGUGUGUCCUC [hsa-mir-1976]
Reply | 0.812

Ask | Query pull-down binding Z-score for CGUAUGUGUAUAUAAAUGUAUACG [hsa-mir-1277]
Reply | -1.36

Ask | Query pull-down binding Z-score for GAUGUAUCCAAGUACCCUGUGUUAUUUGGCAAUAAAUACAUC [hsa-mir-1298]
Reply | -0.35

Ask | Query pull-down binding Z-score for UGGGAGGUAAGAGCUCUUCACCCUUCA [hsa-mir-197]
Reply | 0.638

Ask | Query pull-down binding Z-score for CUGUUCAGGACUCCCAAAUUGUACAG [hsa-mir-199b]
Reply | 0.347

Ask | Query pull-down binding Z-score for CUAUACAUUCUUUAAGAGUUUGUGUAG
Reply | -1.28

Ask | Query pull-down binding Z-score for CUUUGUGAUUUUAUGAGAACAAAG [hsa-mir-3173]
Reply | -1.27

Ask | Query pull-down binding Z-score for GUUGUCUUUGAUGAAAUUUCAAUGGCCAC [DMSMaPseq_invitro_SARS-CoV-2_Motif_310]
Reply | 0.376

---

test system: TO-3-N3-2 (biotin conjugate); assay: pull-down binding Z-score (relative to library population); higher = stronger binding; conditions: RNA library: Library-2
Where pull-down binding Z-score equals or exceeds -0.3, the correct label is label 1; where it does not, the label is label 0.

As a guide, the following entries are already answered.
Ask | # bool: pull-down binding Z-score of GCUGGGGGUAAAUGACUUGCACAUGAACACAAC [hsa-mir-708] >= -0.3
Reply | label 1

Ask | # bool: pull-down binding Z-score of CAGUGGGGACAUG [hsa-mir-4531] >= -0.3
Reply | label 1

Ask | # bool: pull-down binding Z-score of UGGACAGAAAUUUCCUUUUGAGGAAAUCUUUCCC [hsa-mir-4308] >= -0.3
Reply | label 0

Ask | # bool: pull-down binding Z-score of UUUAUGCCUGUUAGCAUGAAAAAAGAGGCUGAGAA [hsa-mir-7515] >= -0.3
Reply | label 1

Next:
Ask | # bool: pull-down binding Z-score of GCAAGUUGAAUCUGAUGAUUACAUAGCUACUAAUGGACCACUUAAAGUGGGUGGUAGUUGUGUUUUAAGCGGACACAAUCUUGC >= -0.3
Reply | label 0

---

system: TO-N3-2 (biotin conjugate); experiment: pull-down binding Z-score (relative to library population); higher = stronger binding; settings: RNA library: Library-2
QUANTITY: pull-down binding Z-score
Quick one: just the number, no unit, thanks!

Worked cases, pull-down binding Z-score given:
Ask | Look up and report measured pull-down binding Z-score (TO-N3-2 (biotin conjugate)) for the following sequence: UCUGCCUAUACAGUUGAACUCGGUACAGAAGUAAAUGAGUUCGCCUGUGUUGUGGCAGA [SHAPE_invivo_SARS-CoV-2_Motif_57]
Reply | 1.36

Ask | Look up and report measured pull-down binding Z-score (TO-N3-2 (biotin conjugate)) for the following sequence: CUGUGGUGGCUGCUUAUGCACCACGG [hsa-mir-105-2]
Reply | -0.626

Ask | Look up and report measured pull-down binding Z-score (TO-N3-2 (biotin conjugate)) for the following sequence: CUGUUUGUUGUCUGAGAAAAAACA [hsa-mir-520g_520h]
Reply | -0.229

Ask | Look up and report measured pull-down binding Z-score (TO-N3-2 (biotin conjugate)) for the following sequence: GGUUUGUUACAGACACACC [SHAPE_invivo_SARS-CoV-2_Motif_243]
Reply | -0.785

Next:
Ask | Look up and report measured pull-down binding Z-score (TO-N3-2 (biotin conjugate)) for the following sequence: UGGGGAUCACAACUCA [IAV_invivo_PB1_2_Motif_11+IAV_invivo_PB1_2_Motif_11]
Reply | -0.317

Ask | Look up and report measured pull-down binding Z-score (TO-N3-2 (biotin conjugate)) for the following sequence: AUGAUGUUUCUUUUUUAGCACAU
Reply | -1.28

Ask | Look up and report measured pull-down binding Z-score (TO-N3-2 (biotin conjugate)) for the following sequence: CGGGACCAACGAGGAAAUGUACUACUGUCUCCCG [IAV_invivo_PB2_1_Motif_23+IAV_invivo_PB2_1_Motif_23]
Reply | 0.354

Ask | Look up and report measured pull-down binding Z-score (TO-N3-2 (biotin conjugate)) for the following sequence: ACACGGUGUUUAAACCGUGU
Reply | -1.15

Ask | Look up and report measured pull-down binding Z-score (TO-N3-2 (biotin conjugate)) for the following sequence: AGCAAGGUGCGUCGUAUCUUGCU [hsa-mir-4804]
Reply | -0.798
